Measurement kind: melting point

Briefly, melting point measured for "COc1cc(F)c(CN(C=O)CCc2ccc(O)cc2)cc1O" : 153 to 168 °C

Briefly, melting point measured for COc1cccc2c1SCC(C(=O)O)C2 (stereo not drawn) : 138 to 144 °C

Briefly, melting point measured for "CC(=O)c1nn2c3c(cccc13)CCC2" : 62 to 64 °C

---

Documented melting point across a set of compounds

1. COc1ccc(C=CC(=O)Nc2cc(Cl)ccc2C(=O)O)cc1OC | 255 to 257 °C

Briefly, melting point measured for "O=c1cc(-c2ccc([N+](=O)[O-])cc2)c2c(O)cc(O)cc2o1" : 268 to 270 °C

Briefly, melting point measured for "N#CC1=C(C#N)Sc2nc3cc(C(F)(F)F)ccc3nc2S1" : 197 to 199 °C

Briefly, melting point measured for CC(C(=O)NCCCCn1cnc2c(N)nc3ccccc3c21)c1ccc(-c2ccccc2)c(F)c1 (stereo not given) : 76.1 to 79.9 °C

Briefly, melting point measured for "CCOC(=O)c1cn(CC)c2nc(OC)c(F)cc2c1=O" : 181 to 182 °C

---

Documented melting point across a set of compounds

1) S=C(NCCN(Cc1ccc(Cl)c(Cl)c1)c1ccc(Br)cn1)Nc1ccc(N2CCCCC2)cc1 | 146 to 148 °C

Briefly, melting point measured for COc1ccc(CC2C(=O)N(Cc3ccccc3)c3ccccc3N(C(=O)CN3C(=O)c4ccccc4C3=O)C2C)cc1 (stereo unspecified) : 247 to 248 °C

Briefly, melting point measured for "COc1ccc2c(=O)[nH]c(=O)[nH]c2c1OC" : 314 to 316 °C

Briefly, melting point measured for "CCCc1nc(N)nc(N2CCOCC2)n1" : 127 to 128 °C

Briefly, melting point measured for "O=[N+]([O-])c1cnc2ccccc2c1Cl" : 118 to 119 °C

Briefly, melting point measured for "COC(=O)COc1c(Br)cc(-c2c3ccccc3c(Br)c3sc4ccccc4c23)cc1Br" : 183 to 184 °C

---

Documented melting point across a set of compounds

Consider the worked cases shown below.
1) O=C1N=c2ccc(NCCCc3ccccc3)cc2=N1 | 205 to 206 °C
2) COC(=O)c1ccc(Br)cc1Cl | 28 to 30 °C
3) CC(C)(C)c1cc2c(c(C(C)(C)C)c1)O[Si](C)(C)Oc1c-2cc(C(C)(C)C)cc1C(C)(C)C | 170 to 176 °C
4) N#Cc1c(Oc2ccc(Oc3ccc(N)cc3)cc2)cccc1Oc1ccc(Oc2ccc(N)cc2)cc1 | 233 to 234 °C
5) O=C(O)c1cc2c(s1)CCc1ccccc1-2 | 205 to 208 °C
6) O=C(O)CC1(CCCCCCCCCCC2(C(=O)O)CC2)CC1 | 71.9 to 74.3 °C
7) CS(=O)(=O)c1ccc(C2=C(c3ccc(F)c(F)c3)CCC2)cc1 | 114 to 115 °C
8) O=C(O)Cc1c(C(=O)c2cc3ccccc3cn2)[nH]c2cc(Cl)ccc12 | 236 to 237 °C
9) COc1cc(OCCOc2ccccc2)cc2nc(-c3cc(C)nc(C)c3)[nH]c(=O)c12 | 223 to 224 °C
10) CCOC(=O)c1ccc2nnc(-c3ncc([N+](=O)[O-])n3C)n2n1 | 180 to 182 °C

Continue with the next compound.
Briefly, melting point measured for "CN1CCN(c2cc3c(F)cccc3c(=O)[nH]2)CC1" : 238 to 239 °C

---

Measurement kind: melting point

1. CC(C#Cc1ccc(C=Cc2cccnc2)o1)N(O)C(N)=O (centres undefined) | 166 °C
2. OCC1OC(n2cc(COc3ccc(C4=NC(=Nc5[nH]c(-c6ccc(O)cc6)cc5-c5ccccc5)C(c5ccccc5)=C4)cc3)nn2)C(O)C(O)C1O (centres undefined) | 180 to 182 °C

Briefly, melting point measured for CCCS(=O)(=O)c1cc([C@H]2CC[C@H](c3cc(OC)c(OC)c(OC)c3)O2)cc(OC)c1OCCBr (relative stereo) : 135 to 136 °C

Briefly, melting point measured for CC(C#N)(Cc1c[nH]cn1)c1ccccc1 (centres undefined) : 187 to 189 °C

---

Measurement kind: melting point

Consider the worked cases shown below.
1) O=C(O)[C@H]1C[C@H](F)CN1 | 258 to 260 °C
2) Cc1cccc(Cl)c1NC(=O)N=C1NCCN1 | 169 to 171 °C
3) CC(=O)Nc1ccc2c(c1)C(=O)N(CCO)CO2 | 155 to 156 °C
4) CCOCCOCCOCCOc1cc(OCCCCCCCCCCCCOc2ccccc2)cc(N(CC(=O)O)CC(=O)O)c1 | 58 to 61 °C

Continue with the next molecule.
Briefly, melting point measured for "COC(=O)/C=C/c1ccc(C)cc1Br" : 70 °C

---

Documented melting point across a set of compounds

Consider the worked cases shown below.
1. CCCNc1ccc([N+](=O)[O-])cc1C(=O)c1ccccc1 | 150 °C
2. N[C@@H]1CCC(=O)N[C@@H]1c1cccc(OC(F)(F)F)c1 (relative stereo) | 126 to 130 °C
3. CCOCc1nc2c(N)nc3ccccc3c2n1CC1(C(N)=O)CC1 | 230 to 232 °C
4. C=C1SC(=O)N(c2ccc3cc(-c4cc5c(c(-c6cccnc6)c4)OCO5)ccc3c2)C1=O | 298 to 300 °C
5. O=C(NN=Cc1ccncc1)OCc1ccccc1 | 134 °C
6. NCC(c1cccc(OCc2ccccc2)c1)C1CCCCC1O (mixture of isomers) | 139 to 141 °C
7. COc1ccc2cc(C(C)C(=O)OCCC3(C)CCc4c(C)c(O)c(C)c(C)c4O3)ccc2c1 (centres undefined) | 99.5 to 102 °C
8. CS(=O)(=O)OCCOc1ccccc1OCC1CC1 | 90 to 91 °C

Continue with the next compound.
Briefly, melting point measured for "O=C1c2ccccc2C(=O)N1CCCn1ccnc1-c1ccccc1" : 109 to 110 °C

---

Documented melting point across a set of compounds

1. OC1C(CF)OC(n2cnc3c(NN4CCCCC4)nc(Cl)nc32)C1O (stereo not given) | 199 to 201 °C

Briefly, melting point measured for "CC(C)c1cccc(C(C)C)c1Oc1ccc(C#N)c(C#N)c1" : 114 to 116 °C

Briefly, melting point measured for "CC(C)[C@H](NC(=O)OCc1ccccc1)C(=O)N[C@@H](Cc1ccccc1)[C@@H](O)[C@@H](O)[C@H](Cc1ccccc1)NC(=O)[C@@H](NC(=O)N1CCN(C)CC1)C(C)C" : 216 to 219 °C

Briefly, melting point measured for "Cc1cc(F)ccc1-c1c(O)c(C)c(-c2ccccn2)oc1=O" : 123 to 125 °C

Briefly, melting point measured for OCC1CN(Cc2ccccc2)CCN1Cc1ccccc1 (stereo not given) : 77 °C

Briefly, melting point measured for O=S1CC2CC(CN(Cc3ccccc3)C2)C1 (stereo not given) : 137 to 138 °C

Briefly, melting point measured for "COc1ccc2c(c1)c(=O)n1nc(C(N)=O)cc1n2C" : > 300 °C

Briefly, melting point measured for "O=C(O)CP(=O)(c1ccccc1)c1ccccc1" : 143 to 146 °C

Briefly, melting point measured for "COC(=O)c1c(Br)c(Br)c(C(=O)OC)c(Br)c1Br" : 207 to 210 °C

Briefly, melting point measured for "COc1ccc(-c2nc(CCC(=O)O)oc2-c2ccccc2)cc1" : 118 to 120 °C

---

Measurement kind: melting point (°C)

1) CCOC(=O)C1=NNC(C)=C(C(=O)OC)C1c1cccc([N+](=O)[O-])c1 (stereo not given) | 174

I: Nc1ccc(C(=O)c2ccccc2)cc1COC1CCCCO1 (stereo not given)
II: O=C(Oc1ccc(F)cc1)[C@H]1CC[C@H](C(F)(F)C(F)(F)C(F)(F)C(F)(F)C(F)(F)C(F)(F)C(F)(F)F)CC1
input: // max by melting point over [ I , II ] Refer to your chosen entry by its label in the reply.
output: I

---

Measurement kind: melting point

Consider the worked cases shown below.
1. Cn1nc(Oc2ccc([N+](=O)[O-])c([N+](=O)[O-])c2)c(Br)c1C(F)(F)F | 152 to 153 °C
2. CCCCCC(COc1ccc(C(=O)O)cc1)c1ccc2c(c1)OCCC2(C)C (stereo not drawn) | 91.5 to 93.3 °C
3. CCOC(=O)C1=C(C)Nc2snc(CCN3CCN(c4ccccc4)CC3)c2C1c1cccc([N+](=O)[O-])c1 (single isomer, unassigned; (+)) | 148 to 149 °C
4. CCCc1nc(C)cn1-c1nc(OC)ccc1N | 124 to 128 °C
5. CC(C)(C(=O)NC(Nc1c(Nc2cccnc2)c(=O)c1=O)C(C)(C)Cc1ccccc1)c1ccccc1 (stereo not drawn) | 228 to 231 °C
6. C=C=CN(C(=O)c1ccco1)c1c(C)cccc1C | 138 to 141 °C
7. CCCCCCCCOc1ccc(-c2nnc(-c3cc(Cl)ccc3Cl)o2)cc1 | 86 °C
8. Nc1ccc(SCCn2cnnc2)cc1 | 160 to 162 °C
9. O=C(CCCCCOc1ccccc1OCc1ccccc1)C(F)(F)F | 31 to 32 °C
10. Cc1c(N2CCN(C)C(C)C2)c(F)cc2c(=O)c(C(=O)O)cn(C3CC3)c12 (stereo not drawn) | 181 to 183 °C

Briefly, melting point measured for "COc1ccc(-c2c3nn(-c4ccc(OC)cc4)c(=O)c-3c[nH]c2C)cc1" : 274 to 282 °C

Briefly, melting point measured for "COc1cc(C)cc(OC)c1-c1nc(=NO)c(=O)n(C)c2ccccc12" : 150 °C

Briefly, melting point measured for "O=C(CBr)c1ccc(S(=O)(=O)Cl)cc1" : 111 °C
